- experimental-system: ALK1 (Homo sapiens)
- Sequence (P37023 22-503): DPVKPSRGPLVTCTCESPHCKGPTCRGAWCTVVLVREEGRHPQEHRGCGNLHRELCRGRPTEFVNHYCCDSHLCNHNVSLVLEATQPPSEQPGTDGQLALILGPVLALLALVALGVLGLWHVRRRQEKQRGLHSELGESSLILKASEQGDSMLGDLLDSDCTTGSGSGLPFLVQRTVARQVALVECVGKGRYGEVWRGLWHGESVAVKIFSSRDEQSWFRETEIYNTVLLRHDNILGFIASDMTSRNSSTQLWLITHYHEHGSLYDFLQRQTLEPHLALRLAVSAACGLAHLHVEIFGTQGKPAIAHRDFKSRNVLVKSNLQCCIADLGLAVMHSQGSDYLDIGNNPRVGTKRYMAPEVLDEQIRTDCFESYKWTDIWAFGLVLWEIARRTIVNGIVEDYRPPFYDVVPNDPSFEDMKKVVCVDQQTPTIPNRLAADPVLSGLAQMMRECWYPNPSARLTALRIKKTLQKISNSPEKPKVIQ
- assay-explanation: TR-FRET enzymatic ALK kinase assay, ALK1
property-name: IC50 (nM)

c1ccc(-c2cnn3cc(-c4ccc(CCN5CCCCC5)cc4)cnc23)cc1 [Compound 88]
1300
NC1(c2ccc(-c3cnc4c(-c5ccc(S(N)(=O)=O)c6ccccc56)cnn4c3)cc2)CC1 [Compound 192]
650
CC(O)c1cccc(-c2cnn3cc(-c4ccc(CN5CCCCC5)cc4)cnc23)c1 (stereo not drawn) [Compound 124]
440
CS(=O)(=O)c1cccc(-c2cnn3cc(-c4ccc(C(F)(F)CN5CCCC5)cc4)cnc23)c1 [Compound 119]
530
CC(O)c1cccc(-c2cnn3cc(-c4ccc(OC5(CN6CCOCC6)CC5)cc4)cnc23)c1 (stereo not drawn) [Compound 177]
770
CS(=O)(=O)c1cccc(-c2cnn3cc(-c4ccc(OCCN5CCCC5)cc4)cnc23)c1 [Compound 108]
390

(a) C[C@@H](O)c1cccc(-c2cnn3cc(-c4ccc(CCN5CCCC5)cc4)cnc23)c1 [Compound 156]
(b) CC1CCN(c2ccc(-c3cnc4c(-c5ccc(S(N)(=O)=O)c6ccccc56)cnn4c3)cn2)CC1 [Compound 47]
(c) C[C@@H]1CNC[C@H](C)N1c1ccc(-c2cnc3c(-c4ccc(C#N)c5ccccc45)cnn3c2)cc1 [Compound 19]
(d) C[C@@H]1CNC[C@H](C)N1c1ccc(-c2cnc3c(-c4ccc([S+](N)(=O)[O-])c(C(F)(F)F)c4)cnn3c2)cc1 [Compound 53]
(e) NC(c1cccc(-c2cnn3cc(-c4ccc(OCCN5CCCCC5)cc4)cnc23)c1)C(F)(F)F (stereo not drawn) [Compound 153]
Highest IC50 first, then in falling order down to the smallest. Lab note: final answer is the ordered label list.
b, d, e, a, c
(b: 5700 nM, d: 2900 nM, e: 1400 nM, a: 840 nM, c: 574 nM)

(P) CS(=O)(=O)c1cccc(-c2cnn3cc(-c4ccc(OC5(CN6CCC(O)CC6)CC5)cc4)cnc23)c1 [Compound 194]
(Q) CC(O)c1ccc(-c2cnn3cc(-c4ccc(N5[C@H](C)CNC[C@@H]5C)cc4)cnc23)c2ccccc12 (stereo partly drawn) [Compound 29]
Endpoint returns whichever of P and Q has the numerically higher IC50. Provide the label of your selected option as the answer.
P
(P: 230 nM, Q: 20 nM)

* * *

- experimental-system: ALK1 (Homo sapiens)
- assay-explanation: TR-FRET enzymatic ALK kinase assay, ALK1
pIC50: −log10 of the molar value.
property-name: pIC50

Worked cases, answers included:
C[S+](=O)([O-])c1cccc(-c2cnn3cc(-c4ccc(OC5(CN6CCCCC6)COC5)cc4)cnc23)c1
7.00
C[C@@H]1CNC[C@H](C)N1c1ccc(-c2cnc3c(-c4cccc(CCO)c4)cnn3c2)cc1
6.55
NS(=O)(=O)c1ccc(-c2cnn3cc(-c4ccc(OC5(CN6CCCCC6)COC5)cc4)cnc23)c2ccccc12
7.08

(P) C[C@@H](O)c1cccc(-c2cnn3cc(-c4ccc(CCN5CCC(O)C5)cc4)cnc23)c1 (stereo partly drawn)
(Q) CC(O)c1cccc(-c2cnn3cc(-c4ccc(CCN5CCCC5)cc4)cnc23)c1 (stereo not drawn)
Endpoint returns whichever of P and Q has the numerically higher pIC50. Provide the label of your selected option as the answer.
P
(P: 6.09, Q: 5.85)

(I) C[C@@H]1CNC[C@H](C)N1c1ccc(-c2cnc3c(-c4ccc(N)c5ccccc45)cnn3c2)cc1
(II) NC(=O)c1cccc2c(-c3cnn4cc(-c5ccc(N6C[C@@H]7C[C@H]6CN7)cc5)cnc34)cccc12
Endpoint returns whichever of I and II has the numerically higher pIC50. Provide the label of your selected option as the answer.
II
